- Protocol Summary: Metabolic stability, Phase I microsome reactions
- Type: in vitro ADME, mouse
- Measurement Context: mouse, liver microsomes, pH 7.4, Phase I only, 1.0 mg/ml microsomes, read-out: Mouse LM-P1 Half-life
Outcome Measure: half-life at 0.5 μM

// recorded half-life at 0.5 μM for C[C@@H](Cc1c(F)c(F)cc(F)c1F)Nc1cc[nH]c(=O)c1-c1nc2cc3c(cc2[nH]1)C(=O)N(c1cccnc1)C3=O : > 2 h

The value of half-life at 0.5 μM measured for the compound C[C@@H](Cc1cc(F)ccc1F)Nc1cc[nH]c(=O)c1-c1nc2cc3c(cc2[nH]1)C(=O)N(C)C3=O turned out to be > 2 h

Field half-life at 0.5 μM (entry COC1c2cc3nc(-c4c(N[C@@H](C)Cc5c(F)c(F)cc(F)c5F)cc[nH]c4=O)[nH]c3cc2C(=O)N1c1cccnc1 (stereo partly drawn) ) reads > 2 h
